Values were extracted from ChEMBL document CHEMBL1141469.

The following molecules are shown together with reported half-life values.
assay: Half life in Beagle dog at 2 mg/kg, po; assay type: ADME, organism-based, Canis lupus familiaris; parameters: dose 2 mg/kg, route oral; settings: in vivo
Write the value in min as a bare number.

// query Output measured half-life for this item: CC(C)CCc1nc(C(F)(F)F)nn1-c1ccc(S(C)(=O)=O)cn1
// result 162

// query Output measured half-life for this item: CS(=O)(=O)c1ccc(-n2nc(C(F)(F)F)nc2-c2ccccc2F)nc1
// result 5520

// query Output measured half-life for this item: CS(=O)(=O)c1ccc(-n2nc(C(F)(F)F)nc2-c2cccnc2)nc1
// result 2920

// query Output measured half-life for this item: CCC(C)Cc1nc(C(F)(F)F)nn1-c1ccc(S(C)(=O)=O)cn1 (centres undefined)
// result 108
